tested on: OVCAR-8 ovarian; assay: NCI tumour cell line growth inhibition, 48 h
measureName: TGI (µM)

>>> df
                                   molecule  measureunit  readingqualifier  valueobserved
0  O=C1C(Br)=C(C2=CC(=P(c3ccccc3)(c3ccccc3)c3ccccc3)C=C2)C(=O)C(Br)=C1C1=CC(=P(c2ccccc2)(c2ccccc2)c2ccccc2)C=C1           µM                 >            100
1           CCOC(=O)C(=Cc1ccccc1Cl)C(=O)OCC           µM                 =           2.12
2             CCC1=C(CC)C1(C#N)[N+](=O)[O-]           µM                 >            100
3  CC1(C)[C@@H]2CC[C@@]1(C)C1(SS1=O)C21Cc2ccccc2C1 (stereo not given in full)           µM                 =             31
4       OCCCCOC(c1ccccc1)(c1ccccc1)c1ccccc1           µM                 >            100

====

Parameter TGI: see the listing below.
system: SK-OV-3 ovarian; assay: NCI tumour cell line growth inhibition, 48 h
Where a SMILES comes first, the peptide text is derived from it. The star is where a group is joined. Boc = CC(C)(C)OC(=O)*

compound	TGI
CCc1ccccc1NC(=O)C1=C(C)NC(C)=C(C(=O)Nc2c(CC)cccc2CC)C1c1ccc2c(c1)OCO2 (stereo unspecified)	> 100 µM
NC(=O)c1c(Br)n(C2OC(CO)C(O)C2O)c2ncnc(N)c12 (stereo unspecified)	9.95 µM
COc1cc2nc3c(=C(C#N)C#N)c4ccccc4n3c(=O)c2cc1OC	> 100 µM
C=C1C(=O)O[C@@H]2[C@@H]3O[C@@H](C[C@@H]13)[C@](C)(O)CC/C=C(\C)CCC[C@H]2C	> 50.4 µM
O=C1C(Br)=C(C2=CC(=P(c3ccccc3)(c3ccccc3)c3ccccc3)C=C2)C(=O)C(Br)=C1C1=CC(=P(c2ccccc2)(c2ccccc2)c2ccccc2)C=C1	> 100 µM
O=C1CSC(c2cccc(Cl)c2)N1c1ccc(-n2c(-c3ccccc3)nc3ccccc3c2=O)cc1 (stereo unspecified)	> 100 µM
O=C(CC1(O)C(=O)Nc2ccccc21)c1ccc2ccccc2c1 (stereo unspecified)	> 100 µM
Nc1ccccc1NC(=O)c1ccc(CNC(=O)OCc2cccnc2)cc1	> 100 µM
O=[N+]([O-])c1ccc2sc(C=Nc3ccc(O)cc3)cc2c1	> 100 µM
Cn1c(=O)nc2n(-c3cc(Cl)ccc3Cl)c3ccccc3nc-2c1=O	91.9 µM
CCCC(=O)OCC1OC(n2cnc3c(=S)nc(N)[nH]c32)C(OC(=O)CCC)C1OC(=O)CCC (stereo unspecified)	9.94 µM
N#CCC(=O)N1CCCOCCC1	> 100 µM
C#CCCCCC#Cc1ccccc1C(=O)C=[N+]=[N-]	> 100 µM
CC(C)(C)OC(=O)NC(Cc1ccccc1)C(=O)N1CCCC1C(N)=O (stereo not drawn) (Boc-Phe-Pro-NH2; configuration not given here)	> 100 µM
COc1cc(OC)c2nc3occc3c(OC)c2c1	> 100 µM
O=C(/C=C\Sc1ccccn1)c1cccc(Br)c1	> 100 µM
CCc1n[nH]c(=O)n1N1C(=O)C2CCCCC2C1=O (stereo unspecified)	> 100 µM
N#CC1C(=O)C(=O)N(c2ccccc2)C1=O (stereo unspecified)	> 100 µM
COc1cc(/C=C2\CCC/C(=C\c3ccc(OC(=O)CCCCC4CCSS4)c(OC)c3)C2=O)ccc1OC(=O)CCCCC1CCSS1 (stereo unspecified)	> 100 µM
CC(=O)Nc1ccccc1S(=O)(=O)c1ccccc1	> 100 µM
O=S(=O)(SCCCCSS(=O)(=O)c1ccc(Cl)cc1)c1ccc(Cl)cc1	30.1 µM
COc1ccc(C(=O)c2cc(OC)c(OC)c(OC)c2)cc1OC(=O)C(Cl)(Cl)Cl	> 100 µM
N#C/C(=C1C=C/C(=N/O)C(Cl)=C/1)c1ccc(Cl)cc1	41.6 µM
COC(=O)C(=O)C(C(=O)C(=O)Nc1ccc([N+](=O)[O-])cc1[N+](=O)[O-])c1nc2ccc(Cl)cc2[nH]c1=O (stereo unspecified)	> 100 µM
C[C@@H](CC(O)C1OC1(C)C)[C@@H]1CC[C@]2(C)C3=CCC4C(C)(C)C(O)CC[C@]4(C)C3CCC12C (stereo partly specified)	58.9 µM
O=C1OC(c2ccccc2)=N/C1=C\c1ccc(Br)cc1	> 100 µM
COc1ccc(OC)c2c1C=C[C@H](C1(C)SCCS1)C2C(C)=O (stereo partly specified)	70.9 µM
COc1ccc2c(c1)O/C(=C\c1ncc([N+](=O)[O-])n1C)C2=O	6.86 µM
Oc1ccc[n+](Cc2ccccc2)c1	> 100 µM
CC(C)OP(=O)(OC(C)C)c1ncc(-c2ccc(C(F)(F)F)cc2)c(NC2CCCCCC2)n1	> 10 µM
CC(C)C[C@@H](NC(=O)[C@@H](Cc1ccccc1)NC(=O)c1cnccn1)B1Oc2ccc(C[C@H](NC(=O)[C@H](Cc3ccc4c(c3)OB([C@@H](CC(C)C)NC(=O)[C@@H](Cc3ccccc3)NC(=O)c3cnccn3)O4)NC(=O)[C@@H](N)CC3CCC4OB([C@@H](CC(C)C)NC(=O)[C@@H](CC5CCCCC5)NC(=O)C5CNCCN5)OC4C3)C(=O)NCCCC[C@@H]3NC(=O)[C@@H](Cc4ccccc4)NC(=O)[C@H](CC(=O)O)NC(=O)CNC(=O)[C@H](CCCNC(=N)N)NC3=O)cc2O1 (stereo partly specified)	0.694 µM

====

// TGI lookup, one value per entry
tested on: DMS 114 small cell lung; experiment: NCI tumour cell line growth inhibition, 48 h
measureName: TGI

In [3]: df
Out[3]:
                                   compound               testtarget  valueobserved
0              CN(C)CCCN1N=Nc2cccc3cccc1c23  DMS 114 small cell lung      > 57.9 µM
1  O=c1oc2c3ccc4ccccc4c3n(CCCN3CCCCC3)c2c2ccccc12  DMS 114 small cell lung       > 100 µM
2  C[C@]12CCC(=O)C[C@H]1CCC(O)[C@@H]2Br (stereo not given in full)  DMS 114 small cell lung       > 100 µM
3  c1ccc(C2N=NN(c3ccccc3)C2N2CCCCC2)cc1 (stereo not given)  DMS 114 small cell lung       > 100 µM
4  O=C(NC1C(O)C(O)C(CO)OC1n1cc(F)c(=O)[nH]c1=O)OCc1ccccc1 (stereo not given)  DMS 114 small cell lung       > 100 µM
5  Cn1c(=O)nc2n(-c3cc(Cl)ccc3Cl)c3ccccc3nc-2c1=O  DMS 114 small cell lung        4.92 µM
6  O=C1C(Cl)C(c2cc(Br)ccc2O)N1n1cnc2ccccc2c1=O (stereo not given)  DMS 114 small cell lung        28.2 µM
7          CC(=O)Nc1ccccc1S(=O)(=O)c1ccccc1  DMS 114 small cell lung       > 100 µM
8  CCCNC1=C(C)C(=O)C2=C(C1=O)[C@H](COC(N)=O)[C@]1(OC)[C@@H]3N[C@@H]3CN21  DMS 114 small cell lung          59 µM
9  C=CCN(N=O)C(=O)NCCCC(NC(C)=O)C(=O)NCc1ccccc1 (stereo not given)  DMS 114 small cell lung       > 100 µM

====

Examples of compounds with documented TGI follow.
test system: LOX IMVI melanoma; assay: NCI tumour cell line growth inhibition, 48 h

compound	readingQualifier	TGI, µM
Cc1nc2c(o1)C(=Nc1ccccc1)c1ccccc1C2=Nc1ccccc1	>	100
O=C1CCC/C=C\C[C@H]2C=CC(=O)/C2=C/C[C@H](CCc2cccc(C(F)(F)F)c2)O1	=	1.82
CC1(C)CC[C@]2(C(=O)O)CC[C@]3(C)C(=CC[C@@H]4[C@@]5(C)CC[C@H](OC6OC(C(=O)O)C(O)C(O)C6O)C(C)(C)[C@@H]5CC[C@]43C)[C@@H]2C1 (some centres not stated)	=	35.8
CC1NOC(=O)C1N=Nc1ccccc1Br (configuration not stated)	>	100
CC1=NN(c2cccc(Cl)c2)C2(C1=Cc1ccccc1)C(Cl)C(=O)N2c1nc2ccccc2s1 (configuration not stated)	=	64
Nc1ccc(C(=O)N/C(=C\C=C\c2ccco2)c2nc3c4c(ccc3[nH]2)C(=O)c2ccccc2C4=O)cc1	>	100
CCOC(=O)C(Br)(C(N)=O)C1(O)OC(c2ccccc2)=C(Br)C1=O (configuration not stated)	=	46.1

====

tested on: SF-539 CNS; assay: NCI tumour cell line growth inhibition, 48 h
Recorded TGI values for a group of compounds are listed next.

compound	testTarget	TGI
COC(=O)/C(=N\NC(N)=O)C(C(=O)C(=O)Nc1ccccc1C(=O)OC)c1nc2ccc(C(=O)c3ccccc3)cc2[nH]c1=O (stereo not given)	SF-539 CNS	> 100 µM
CC(C)(O)[C@@H]1CC[C@](C)(C2[C@@H](O)C[C@@]3(C)C4C[C@H](OC5OCC(O)C(O)C5O)[C@H]5C(C)(C)[C@@H](OC6OCC(O)C(O)C6OC6OCC(O)C(O)C6O)CC[C@@]56C[C@@]46CC[C@]23C)O1 (stereo not given in full)	SF-539 CNS	> 100 µM
CC(C)N(Cc1c(F)cccc1F)c1ccc(CO)c(Cl)c1	SF-539 CNS	31.8 µM
C=CC1(c2ccc(-c3ccccc3)cc2)OCCO1	SF-539 CNS	> 100 µM
O=C(Cc1ccccc1CCO)NCCc1ccccc1	SF-539 CNS	> 100 µM
